Provenance of the data: the supplement of paper PMC9112550

Test system: Escherichia coli TOP10;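 note: peptides expressed intracellularly from a pBAD plasmid library in pooled LB shake-flask culture, induced with 0.3% L-arabinose, DNA abundance read by NGS, three biological replicates, DESeq2 with apeglm shrinkage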
Assay: shrunken log2 fold change of peptide-encoding DNA abundance (4.5 h post-induction vs induction); higher = less antimicrobial activity (less host growth inhibition)
Conditions: time post-induction: 4.5 h; library: site-saturation at positions 5, 18, 19, 20
Rule: shrunken log2 fold change of -0.1 or more gives MET; anything lower gives NOT MET.

{"Sequence": "RRIRPRPPRLPRPRPRPAWVPRP", "Assigned class": "MET"}
{"Sequence": "RRIRHRPPRLPRPRPRPGMIPRP", "Assigned class": "NOT MET"}
{"Sequence": "RRIRTRPPRLPRPRPRPWFAPRP", "Assigned class": "MET"}
{"Sequence": "RRIRPRPPRLPRPRPRPQGFPRP", "Assigned class": "MET"}
{"Sequence": "RRIRARPPRLPRPRPRPEEAPRP", "Assigned class": "MET"}
{"Sequence": "RRIRFRPPRLPRPRPRPVTDPRP", "Assigned class": "MET"}
{"Sequence": "RRIRDRPPRLPRPRPRPIAAPRP", "Assigned class": "MET"}
{"Sequence": "RRIRERPPRLPRPRPRPGDMPRP", "Assigned class": "NOT MET"}
{"Sequence": "RRIRFRPPRLPRPRPRPQWIPRP", "Assigned class": "NOT MET"}
{"Sequence": "RRIRYRPPRLPRPRPRPWVCPRP", "Assigned class": "MET"}
{"Sequence": "RRIRFRPPRLPRPRPRPGWAPRP", "Assigned class": "MET"}
{"Sequence": "RRIRWRPPRLPRPRPRPWKYPRP", "Assigned class": "NOT MET"}
{"Sequence": "RRIRLRPPRLPRPRPRPGRFPRP", "Assigned class": "MET"}
{"Sequence": "RRIRSRPPRLPRPRPRPAKIPRP", "Assigned class": "MET"}
{"Sequence": "RRIRYRPPRLPRPRPRPHNDPRP", "Assigned class": "NOT MET"}
{"Sequence": "RRIRRRPPRLPRPRPRPGTYPRP", "Assigned class": "MET"}
{"Sequence": "RRIRWRPPRLPRPRPRPDMVPRP", "Assigned class": "MET"}
{"Sequence": "RRIRTRPPRLPRPRPRPWTNPRP", "Assigned class": "NOT MET"}
{"Sequence": "RRIRFRPPRLPRPRPRPLEGPRP", "Assigned class": "MET"}
{"Sequence": "RRIRIRPPRLPRPRPRPPTCPRP", "Assigned class": "NOT MET"}
{"Sequence": "RRIRDRPPRLPRPRPRPLGDPRP", "Assigned class": "MET"}
{"Sequence": "RRIRNRPPRLPRPRPRPAKFPRP", "Assigned class": "NOT MET"}
{"Sequence": "RRIRNRPPRLPRPRPRPIIVPRP", "Assigned class": "NOT MET"}
{"Sequence": "RRIRHRPPRLPRPRPRPMPHPRP", "Assigned class": "NOT MET"}
{"Sequence": "RRIRTRPPRLPRPRPRPKGDPRP", "Assigned class": "MET"}
{"Sequence": "RRIRFRPPRLPRPRPRPNAMPRP", "Assigned class": "NOT MET"}
{"Sequence": "RRIRYRPPRLPRPRPRPSSVPRP", "Assigned class": "NOT MET"}
{"Sequence": "RRIRMRPPRLPRPRPRPLDQPRP", "Assigned class": "MET"}
{"Sequence": "RRIRLRPPRLPRPRPRPDMNPRP", "Assigned class": "NOT MET"}
{"Sequence": "RRIRSRPPRLPRPRPRPFMAPRP", "Assigned class": "NOT MET"}
{"Sequence": "RRIRFRPPRLPRPRPRPTASPRP", "Assigned class": "MET"}
{"Sequence": "RRIRYRPPRLPRPRPRPSVNPRP", "Assigned class": "NOT MET"}
{"Sequence": "RRIRWRPPRLPRPRPRPTWWPRP", "Assigned class": "MET"}
{"Sequence": "RRIRNRPPRLPRPRPRPRLCPRP", "Assigned class": "MET"}
{"Sequence": "RRIRQRPPRLPRPRPRPIYVPRP", "Assigned class": "MET"}
{"Sequence": "RRIRWRPPRLPRPRPRPFPPPRP", "Assigned class": "MET"}
{"Sequence": "RRIRYRPPRLPRPRPRPNPMPRP", "Assigned class": "NOT MET"}
{"Sequence": "RRIRARPPRLPRPRPRPVCCPRP", "Assigned class": "MET"}
{"Sequence": "RRIRTRPPRLPRPRPRPYPDPRP", "Assigned class": "MET"}
{"Sequence": "RRIRARPPRLPRPRPRPWMGPRP", "Assigned class": "MET"}
{"Sequence": "RRIRIRPPRLPRPRPRPCKWPRP", "Assigned class": "NOT MET"}
{"Sequence": "RRIRARPPRLPRPRPRPTRGPRP", "Assigned class": "MET"}
{"Sequence": "RRIRDRPPRLPRPRPRPMSDPRP", "Assigned class": "MET"}
{"Sequence": "RRIRWRPPRLPRPRPRPCNRPRP", "Assigned class": "MET"}
{"Sequence": "RRIRVRPPRLPRPRPRPVAGPRP", "Assigned class": "MET"}
{"Sequence": "RRIRHRPPRLPRPRPRPFDRPRP", "Assigned class": "NOT MET"}
{"Sequence": "RRIRVRPPRLPRPRPRPLIAPRP", "Assigned class": "MET"}
{"Sequence": "RRIRSRPPRLPRPRPRPYEKPRP", "Assigned class": "NOT MET"}
{"Sequence": "RRIRARPPRLPRPRPRPEFHPRP", "Assigned class": "MET"}
{"Sequence": "RRIRMRPPRLPRPRPRPVVRPRP", "Assigned class": "MET"}
{"Sequence": "RRIRDRPPRLPRPRPRPTLCPRP", "Assigned class": "MET"}
{"Sequence": "RRIRHRPPRLPRPRPRPEERPRP", "Assigned class": "MET"}
{"Sequence": "RRIRERPPRLPRPRPRPWGDPRP", "Assigned class": "MET"}
{"Sequence": "RRIRPRPPRLPRPRPRPWGDPRP", "Assigned class": "MET"}
{"Sequence": "RRIRLRPPRLPRPRPRPFFYPRP", "Assigned class": "NOT MET"}
{"Sequence": "RRIRCRPPRLPRPRPRPRYTPRP", "Assigned class": "NOT MET"}
